From: the array DNA melting data of Ke et al.

Can you tell me Tm for the items I'm about to list?
measurement_description: melting temperature; melt of duplexes
condition_details: sodium 0.0675 M; strand 1 µM

Query: Specify reported Tm for the substance shown: CGACGTGCGGAATGTGCTG+CAGCACATTGTGCACGTCG ((((((((..(((((((((+)))))))))..))))))))
Result: 53.9 °C

Query: Specify reported Tm for the substance shown: CGACGTGCGGGATGTGCTG+CAGCACATCGAGCACGTCG ((((((((..(((((((((+)))))))))..))))))))
Result: 58.1 °C

Query: Specify reported Tm for the substance shown: CGACGTGCGACATGTGCTG+CAGCACATGGCGCACGTCG (((((((((.(((((((((+))))))))).)))))))))
Result: 65.2 °C

Query: Specify reported Tm for the substance shown: CGACGTGCGAGATGTGCTG+CAGCACATTGGGCACGTCG ((((((((...((((((((+))))))))...))))))))
Result: 51.9 °C

Query: Specify reported Tm for the substance shown: CGACGTGCTCCATGTGCTG+CAGCACATGTGGCACGTCG ((((((((..(((((((((+)))))))))..))))))))
Result: 53.8 °C

Query: Specify reported Tm for the substance shown: CGACGTGCACCATGTGCTG+CAGCACATGTGGCACGTCG ((((((((..(((((((((+)))))))))..))))))))
Result: 53.4 °C

* * *

measurement_description: melting temperature; melt of duplexes
condition_details: sodium 0.0675 M; strand 1 µM
quantity: Tm (°C)
Value expressed in °C; do not type the unit.

Query: Specify reported Tm for the substance shown: CGACGTGCCATATGTGCTG+CAGCACATTTAGCACGTCG ((((((((.(.((((((((+)))))))).).))))))))
Result: 49.7

Query: Specify reported Tm for the substance shown: CGACGTGCCCCATGTGCTG+CAGCACATATTGCACGTCG ((((((((...((((((((+))))))))...))))))))
Result: 46.1

Query: Specify reported Tm for the substance shown: CGACGTGCGAGATGTGCTG+CAGCACATGATGCACGTCG ((((((((...((((((((+))))))))...))))))))
Result: 53.2

Query: Specify reported Tm for the substance shown: CGACGTGCGGTATGTGCTG+CAGCACATTGGGCACGTCG ((((((((...((((((((+))))))))...))))))))
Result: 49.8

* * *

measurement_description: melting temperature; melt of duplexes
condition_details: sodium 0.0675 M; strand 1 µM
Can you tell me Tm for the items I'm about to list?
Value expressed in °C; do not type the unit.

Query: Specify reported Tm for the substance shown: CGACGTGCATGATGTGCTG+CAGCACATTGTGCACGTCG (((((((((..((((((((+))))))))..)))))))))
Result: 53.2

Query: Specify reported Tm for the substance shown: CGACGTGCACTATGTGCTG+CAGCACATAATGCACGTCG (((((((((.(((((((((+))))))))).)))))))))
Result: 51.2

Query: Specify reported Tm for the substance shown: CGACGTGCCCCATGTGCTG+CAGCACATCATGCACGTCG ((((((((...((((((((+))))))))...))))))))
Result: 46.5

Query: Specify reported Tm for the substance shown: CGACGTGCGCGATGTGCTG+CAGCACATCTTGCACGTCG ((((((((..(((((((((+)))))))))..))))))))
Result: 53.9

Query: Specify reported Tm for the substance shown: CGACGTGCATTATGTGCTG+CAGCACATGTTGCACGTCG (((((((((..((((((((+))))))))..)))))))))
Result: 52.2

Query: Specify reported Tm for the substance shown: CGACGTGCTGGATGTGCTG+CAGCACATGTTGCACGTCG ((((((((...((((((((+))))))))...))))))))
Result: 51.4

Query: Specify reported Tm for the substance shown: CGACGTGCTGGATGTGCTG+CAGCACATCTTGCACGTCG ((((((((..(((((((((+)))))))))..))))))))
Result: 56.6

Query: Specify reported Tm for the substance shown: CGACGTGCGAAATGTGCTG+CAGCACATGAAGCACGTCG ((((((((...((((((((+))))))))...))))))))
Result: 59.3

* * *

measurement_description: melting temperature; melt of duplexes
condition_details: sodium 0.0675 M; strand 1 µM
quantity: Tm

Query: Specify reported Tm for the substance shown: CGACGTGCCCCATGTGCTG+CAGCACATGCCGCACGTCG ((((((((..(((((((((+)))))))))..))))))))
Result: 50.3 °C

Query: Specify reported Tm for the substance shown: CGACGTGCAGAATGTGCTG+CAGCACATGCCGCACGTCG ((((((((.(.((((((((+)))))))).).))))))))
Result: 54.6 °C

Query: Specify reported Tm for the substance shown: CGACGTGCTGGATGTGCTG+CAGCACATCTCGCACGTCG ((((((((..(((((((((+)))))))))..))))))))
Result: 55.3 °C

Query: Specify reported Tm for the substance shown: CGACGTGCAAGATGTGCTG+CAGCACATTGCGCACGTCG ((((((((...((((((((+))))))))...))))))))
Result: 52.9 °C

Query: Specify reported Tm for the substance shown: CGACGTGCGGAATGTGCTG+CAGCACATGCAGCACGTCG ((((((((.(.((((((((+)))))))).).))))))))
Result: 59.9 °C

Query: Specify reported Tm for the substance shown: CGACGTGCCATATGTGCTG+CAGCACATGACGCACGTCG ((((((((...((((((((+))))))))...))))))))
Result: 45.5 °C

Query: Specify reported Tm for the substance shown: CGACGTGCGGTATGTGCTG+CAGCACATCAAGCACGTCG ((((((((...((((((((+))))))))...))))))))
Result: 54 °C

Query: Specify reported Tm for the substance shown: CGACGTGCCCGATGTGCTG+CAGCACATAAAGCACGTCG ((((((((...((((((((+))))))))...))))))))
Result: 49.8 °C

Query: Specify reported Tm for the substance shown: CGACGTGCCCCATGTGCTG+CAGCACATAGCGCACGTCG ((((((((.(.((((((((+)))))))).).))))))))
Result: 47.3 °C

Query: Specify reported Tm for the substance shown: CGACGTGCACAATGTGCTG+CAGCACATAGAGCACGTCG ((((((((.(.((((((((+)))))))).).))))))))
Result: 48.4 °C

Query: Specify reported Tm for the substance shown: CGACGTGCAGTATGTGCTG+CAGCACATCTCGCACGTCG ((((((((...((((((((+))))))))...))))))))
Result: 50.1 °C

Query: Specify reported Tm for the substance shown: CGACGTGCTCCATGTGCTG+CAGCACATCCAGCACGTCG (((((((((..((((((((+))))))))..)))))))))
Result: 48.7 °C

Query: Specify reported Tm for the substance shown: CGACGTGCTGTATGTGCTG+CAGCACATTTTGCACGTCG ((((((((...((((((((+))))))))...))))))))
Result: 49.2 °C

Query: Specify reported Tm for the substance shown: CGACGTGCATGATGTGCTG+CAGCACATATTGCACGTCG (((((((((..((((((((+))))))))..)))))))))
Result: 52.3 °C

* * *

Can you tell me Tm for the items I'm about to list?
measurement_description: melting temperature; melt of duplexes
condition_details: sodium 0.0675 M; strand 1 µM
Value expressed in °C; do not type the unit.

Query: Specify reported Tm for the substance shown: CGACGTGCACTATGTGCTG+CAGCACATCTTGCACGTCG (((((((((..((((((((+))))))))..)))))))))
Result: 46.5

Query: Specify reported Tm for the substance shown: CGACGTGCTCCATGTGCTG+CAGCACATAACGCACGTCG ((((((((...((((((((+))))))))...))))))))
Result: 47

Query: Specify reported Tm for the substance shown: CGACGTGCCGAATGTGCTG+CAGCACATAGTGCACGTCG ((((((((...((((((((+))))))))...))))))))
Result: 45.9

Query: Specify reported Tm for the substance shown: CGACGTGCAGTATGTGCTG+CAGCACATCAGGCACGTCG ((((((((...((((((((+))))))))...))))))))
Result: 50.2

Query: Specify reported Tm for the substance shown: CGACGTGCGTTATGTGCTG+CAGCACATACAGCACGTCG ((((((((..(((((((((+)))))))))..))))))))
Result: 53.3

Query: Specify reported Tm for the substance shown: CGACGTGCGCCATGTGCTG+CAGCACATAAAGCACGTCG ((((((((...((((((((+))))))))...))))))))
Result: 53.6

Query: Specify reported Tm for the substance shown: CGACGTGCCTAATGTGCTG+CAGCACATTAAGCACGTCG ((((((((.((((((((((+)))))))))).))))))))
Result: 53.4

Query: Specify reported Tm for the substance shown: CGACGTGCACGATGTGCTG+CAGCACATAGCGCACGTCG ((((((((.(.((((((((+)))))))).).))))))))
Result: 50.3

Query: Specify reported Tm for the substance shown: CGACGTGCTCGATGTGCTG+CAGCACATATCGCACGTCG ((((((((...((((((((+))))))))...))))))))
Result: 47.8

Query: Specify reported Tm for the substance shown: CGACGTGCTTTATGTGCTG+CAGCACATGCTGCACGTCG ((((((((...((((((((+))))))))...))))))))
Result: 46.2

Query: Specify reported Tm for the substance shown: CGACGTGCGGGATGTGCTG+CAGCACATGCCGCACGTCG ((((((((((.((((((((+)))))))).))))))))))
Result: 63.7

Query: Specify reported Tm for the substance shown: CGACGTGCATAATGTGCTG+CAGCACATGACGCACGTCG ((((((((.(.((((((((+)))))))).).))))))))
Result: 50.5

Query: Specify reported Tm for the substance shown: CGACGTGCAAAATGTGCTG+CAGCACATAGGGCACGTCG ((((((((...((((((((+))))))))...))))))))
Result: 48.7

Query: Specify reported Tm for the substance shown: CGACGTGCTCCATGTGCTG+CAGCACATTTGGCACGTCG ((((((((...((((((((+))))))))...))))))))
Result: 48.3
